Where these numbers come from: ChEMBL document CHEMBL4396940

Tested on: SU-DHL-6
ASSAY_OVERVIEW: Antiproliferative activity against human SUDHL6 cells by MTT assay
Assay type: functional, cell-based
OUTCOME_MEASURE: IC50 (nM)

// known answers, use as guide
COc1ncc(-c2ccc3ncnc(N[C@H]4CCCN(C(=O)C(F)(F)F)C4)c3c2)cc1C#N: 210
COc1ncc(-c2ccc3ncnc(N[C@H]4CCCN(C(=O)CN(C)C)C4)c3c2)cc1C#N: 160
COc1ncc(-c2ccc3ncnc(N[C@H]4CCCN(C(=O)[C@H](C)N)C4)c3c2)cc1C#N: 440
COc1ncc(-c2ccc3ncnc(N[C@H]4CCCN(C(=O)C5CCOCC5)C4)c3c2)cc1C#N: 150
COc1ncc(-c2ccc3ncnc(N[C@H]4CCCN(C(=O)CCBr)C4)c3c2)cc1C#N: 15
CCOC(=O)CN1CCC[C@H](Nc2ncnc3ccc(-c4cnc(OC)c(C#N)c4)cc23)C1: 500
CC[C@H](Nc1ncnc2[nH]cnc12)c1nc2cccc(F)c2c(=O)n1-c1ccccc1: 33
COc1ncc(-c2ccc3ncnc(N[C@H]4CCCN(C(=O)C5CCNCC5)C4)c3c2)cc1C#N: 2440
COc1ncc(-c2ccc3ncnc(N[C@H]4CCCN(C(=O)C(F)(F)F)C4)c3c2)cc1[N+](=O)[O-]: 127000
COc1ncc(-c2ccc3ncnc(N[C@H]4CCCN(C(=O)CCl)C4)c3c2)cc1C#N: 380

a = COc1ncc(-c2ccc3ncnc(N[C@H]4CCCN(C(=O)C5CCN(C)CC5)C4)c3c2)cc1C#N
b = COc1ncc(-c2ccc3ncnc(N[C@H]4CCCN(C(=O)c5cccnc5)C4)c3c2)cc1C#N
Task: Could you kindly indicate whether a or b has the higher IC50 value? Lab note: record the label of whichever item you select.
Result: a
(a: 420 nM, b: 120 nM)

a = CCOC(=O)CN1CCC[C@H](Nc2ncnc3ccc(-c4cnc(OC)c(C(F)(F)F)c4)cc23)C1
b = COc1ncc(-c2ccc3ncnc(N[C@H]4CCCN(CCO)C4)c3c2)cc1C#N
Task: Could you kindly indicate whether a or b has the higher IC50 value? Lab note: record the label of whichever item you select.
Result: b

====

MEASURED_ON: Phosphatidylinositol 4,5-bisphosphate 3-kinase catalytic subunit delta isoform (Homo sapiens)
Sequence (O00329 whole entry, canonical isoform): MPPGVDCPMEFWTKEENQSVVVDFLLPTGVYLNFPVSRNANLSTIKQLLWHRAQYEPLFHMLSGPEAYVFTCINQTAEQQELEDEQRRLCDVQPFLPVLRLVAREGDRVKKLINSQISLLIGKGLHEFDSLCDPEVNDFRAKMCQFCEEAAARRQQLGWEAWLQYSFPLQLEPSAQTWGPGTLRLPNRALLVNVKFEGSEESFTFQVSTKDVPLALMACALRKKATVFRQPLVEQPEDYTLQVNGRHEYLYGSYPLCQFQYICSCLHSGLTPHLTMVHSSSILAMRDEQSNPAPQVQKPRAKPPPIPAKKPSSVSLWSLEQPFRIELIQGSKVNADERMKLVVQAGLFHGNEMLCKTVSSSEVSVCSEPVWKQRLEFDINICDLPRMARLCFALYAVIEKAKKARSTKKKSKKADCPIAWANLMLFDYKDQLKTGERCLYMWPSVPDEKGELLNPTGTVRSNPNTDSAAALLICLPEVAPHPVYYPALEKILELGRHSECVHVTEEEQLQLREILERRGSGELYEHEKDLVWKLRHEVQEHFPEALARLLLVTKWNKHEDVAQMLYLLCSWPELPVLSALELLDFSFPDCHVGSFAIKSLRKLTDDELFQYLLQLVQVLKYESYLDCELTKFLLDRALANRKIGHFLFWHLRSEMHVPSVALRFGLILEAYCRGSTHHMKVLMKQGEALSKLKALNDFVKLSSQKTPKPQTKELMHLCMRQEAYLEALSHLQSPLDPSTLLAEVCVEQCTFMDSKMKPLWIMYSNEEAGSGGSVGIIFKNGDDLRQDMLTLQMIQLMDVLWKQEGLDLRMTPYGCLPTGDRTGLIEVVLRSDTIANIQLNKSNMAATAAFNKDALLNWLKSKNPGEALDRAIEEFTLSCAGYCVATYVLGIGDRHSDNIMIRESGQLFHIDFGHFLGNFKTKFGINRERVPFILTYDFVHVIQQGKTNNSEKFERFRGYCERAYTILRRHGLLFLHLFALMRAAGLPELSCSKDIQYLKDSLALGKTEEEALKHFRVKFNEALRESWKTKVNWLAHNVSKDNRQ
ASSAY_OVERVIEW: Inhibition of PI3K delta (unknown origin) using phosphatidyl inositol as substrate measured after 60 mins in presence of ATP by Kinase-Glo Plus reagent-based luminescence assay
OUTCOME_MEASURE: IC50 (nM)

CCOC(=O)CN1CCC[C@H](Nc2ncnc3ccc(-c4cnc(OC)c(C(F)(F)F)c4)cc23)C1: 6.8

P = COc1ncc(-c2ccc3ncnc(N[C@H]4CCCN(CCO)C4)c3c2)cc1C#N
Q = COc1ncc(-c2ccc3ncnc(N[C@H]4CCCN(C(=O)C(F)(F)F)C4)c3c2)cc1C#N
R = COc1ncc(-c2ccc3ncnc(N[C@H]4CCCN(C(=O)C5CCOCC5)C4)c3c2)cc1C#N
S = COc1ncc(-c2ccc3ncnc(N[C@H]4CCCN(C(=O)c5cccnc5)C4)c3c2)cc1C#N
Task: Order field: IC50 | Direction: descending (largest first) Lab note: record answer as labels in requested order.
Result: R, P, Q, S

====

System: MCF7
ASSAY_OVERVIEW: cells
REPORTED_CONDITIONS: Homo sapiens
Description: Antiproliferative activity against human MCF7 cells by MTT assay
Measured IC50 accompanies every entry in the list below.

// known answers, use as guide
Cn1c(=O)n(-c2ccc(C(C)(C)C#N)cc2)c2c3cc(-c4cnc5ccccc5c4)ccc3ncc21: 0.2 µM
CC[C@H](Nc1ncnc2[nH]cnc12)c1nc2cccc(F)c2c(=O)n1-c1ccccc1: > 10 µM
COc1ncc(-c2ccc3ncnc(N[C@H]4CCCN(C(=O)CN(C)C)C4)c3c2)cc1C#N: > 10 µM
COc1ncc(-c2ccc3ncnc(N[C@H]4CCCN(C(=O)[C@H](C)N)C4)c3c2)cc1C#N: > 10 µM

API: the following record is the query input.
Lab note: measured IC50 of COc1ncc(-c2ccc3ncnc(N[C@H]4CCCN(C(=O)c5cccnc5)C4)c3c2)cc1C#N was > 10 µM
